# target_under_test: Sentrin-specific protease 8 (Homo sapiens)
# Sequence (Q96LD8 whole entry): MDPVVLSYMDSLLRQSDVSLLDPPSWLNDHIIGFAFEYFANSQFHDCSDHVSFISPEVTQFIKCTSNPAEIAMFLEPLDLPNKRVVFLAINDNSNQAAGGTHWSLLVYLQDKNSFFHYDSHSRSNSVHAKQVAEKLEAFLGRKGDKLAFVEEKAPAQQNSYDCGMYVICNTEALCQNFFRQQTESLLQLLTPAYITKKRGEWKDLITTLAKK
# Assay type: functional
Activity calls are given as the source filed them.
Field 'call' accepts True (active), False (inactive)

What outcome does the record of this test show for `O=C(N/N=C/c1ccc([N+](=O)[O-])o1)c1ccncc1` ?
True

What outcome does the record of this test show for `CCN1CCC2(CC1)N=C(c1ccc(F)cc1)C(=S)N2C(=O)c1ccc(C)cc1` ?
False

What outcome does the record of this test show for `COc1cc(C(=O)c2nccc3cc(OC)c(OC)cc23)c([N+](=O)[O-])cc1OC` ?
True

What outcome does the record of this test show for CCC(CO)Oc1cc(NCc2ccncc2)c2ncn(C(C)C)c2c1 (centres undefined) ?
True

----------
# target_under_test: Eukaryotic translation initiation factor 4E (Mus musculus, UniProt P63073)
# Sequence (P63073 whole entry): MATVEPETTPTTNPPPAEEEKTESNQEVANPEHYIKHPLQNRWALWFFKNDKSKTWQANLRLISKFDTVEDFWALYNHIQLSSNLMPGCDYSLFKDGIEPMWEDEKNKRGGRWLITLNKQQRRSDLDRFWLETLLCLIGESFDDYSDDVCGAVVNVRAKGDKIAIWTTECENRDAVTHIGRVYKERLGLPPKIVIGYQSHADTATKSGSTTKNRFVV
# assay_method_text: eIF4E–eIF4G protein interaction inhibitors, dose response, biochemical, TR-FRET (AID 855);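 further: potency for disrupting eIF4E binding to eIF4GI seen as loss of FRET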
# Assay type: functional
The source made the active and inactive calls.
Field 'call' accepts active, inactive

What outcome does the record of this test show for `Clc1nss/c1=N\c1ccc(Br)cc1` ?
inactive

What outcome does the record of this test show for `Cc1ccc(/N=c2\ssnc2Cl)cc1` ?
inactive

What outcome does the record of this test show for `O=C1NN(c2ccc(Cl)cc2)C(=O)/C1=C\c1ccc(-c2cccc(C(=O)O)c2)o1` ?
inactive

What outcome does the record of this test show for O=C(OC1CCCCC1)c1ccc2c(c1)C1C=CCC1C(C(=O)O)N2 (stereo not given) ?
active

What outcome does the record of this test show for `NC(=O)NC(=O)COC(=O)c1cccc(NS(=O)(=O)/C=C/c2ccccc2)c1` ?
inactive

----------
Answer each item with its documented IC50.
# target_under_test: Polyadenylate-binding protein 1 (Homo sapiens, UniProt P11940)
# Sequence (P11940 whole entry): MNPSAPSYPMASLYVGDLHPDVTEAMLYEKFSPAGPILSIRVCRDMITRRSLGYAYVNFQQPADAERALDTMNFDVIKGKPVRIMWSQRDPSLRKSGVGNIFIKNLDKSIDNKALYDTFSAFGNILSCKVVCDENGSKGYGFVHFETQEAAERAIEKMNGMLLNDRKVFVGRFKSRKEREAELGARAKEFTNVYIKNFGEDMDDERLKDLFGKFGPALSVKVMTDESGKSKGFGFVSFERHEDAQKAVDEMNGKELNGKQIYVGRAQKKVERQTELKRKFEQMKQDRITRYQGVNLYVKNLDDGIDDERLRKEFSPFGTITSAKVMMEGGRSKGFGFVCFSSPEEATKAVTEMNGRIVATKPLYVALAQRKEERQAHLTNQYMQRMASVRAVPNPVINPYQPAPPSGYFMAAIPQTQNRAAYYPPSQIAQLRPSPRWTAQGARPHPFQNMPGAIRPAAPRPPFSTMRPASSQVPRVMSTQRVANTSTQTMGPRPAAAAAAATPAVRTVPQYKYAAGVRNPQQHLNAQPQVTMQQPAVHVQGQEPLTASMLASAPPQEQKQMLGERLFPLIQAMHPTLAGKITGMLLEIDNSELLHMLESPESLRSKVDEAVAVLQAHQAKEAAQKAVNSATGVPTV
# assay_method_text: PABP1 MLLE–PAM2 binding inhibitor potency, dose response, biochemical, fluorescence polarization, FITC-PAM2 peptide (AID 602259)
# Type: functional
# assay_context: read-out: IC50_Mean
The source made the active and inactive calls.

Name the reported IC50 value associated with the compound CC(C)C(NC(=O)c1ccccc1)C(=O)NC1=NCCS1 (stereo not drawn)
> 66 µM (inactive)

Name the reported IC50 value associated with the compound `O=C(CSC1=NCCS1)Nc1ccccc1F`
> 66 µM (inactive)

Name the reported IC50 value associated with the compound `O=C1C(Cl)=C(NC(=O)c2ccccc2)C(=O)C(Cl)=C1NC(=O)c1ccccc1`
> 66 µM (inactive)

----------
# target_under_test: Streptokinase A (Streptococcus pyogenes serotype M1)
# Sequence (P10520 whole entry): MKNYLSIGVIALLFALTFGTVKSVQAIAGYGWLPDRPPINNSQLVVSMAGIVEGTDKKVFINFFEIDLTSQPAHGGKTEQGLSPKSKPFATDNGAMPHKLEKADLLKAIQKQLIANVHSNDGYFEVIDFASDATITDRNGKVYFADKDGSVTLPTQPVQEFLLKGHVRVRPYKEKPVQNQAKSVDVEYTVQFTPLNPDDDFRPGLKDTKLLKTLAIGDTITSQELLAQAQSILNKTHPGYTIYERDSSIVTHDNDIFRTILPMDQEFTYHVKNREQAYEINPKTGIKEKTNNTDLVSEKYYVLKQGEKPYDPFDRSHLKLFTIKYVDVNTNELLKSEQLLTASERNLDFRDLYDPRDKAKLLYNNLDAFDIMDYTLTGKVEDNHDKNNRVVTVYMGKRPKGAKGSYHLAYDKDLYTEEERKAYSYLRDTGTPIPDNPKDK
# assay_method_text: S. pyogenes streptokinase expression inhibitors, potency, dose response, plasminogen activation absorbance, OD405 (AID 1914);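 further: secreted streptokinase activity via plasminogen activation per viability signal from cell pellet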
# Format: functional, Streptococcus pyogenes M1 GAS
Activity calls are given as the source filed them.
Answer each item with its documented EC50.

Name the reported EC50 value associated with the compound `CNC(=S)N/N=C/c1cn(Cc2ccc(C)cc2)c2ccccc12`
74.1 µM (active)

Name the reported EC50 value associated with the compound `CCN(CC)c1ccc(/C=N/C(C#N)=C(\N)C#N)cc1`
> 150 µM (not active)

Name the reported EC50 value associated with the compound `Cn1ccc(=Nc2ccc(NC(=O)c3ccc(/N=c4\ccn(C)c5ccc([N+](=O)[O-])cc45)cc3)cc2)cc1`
28 µM (inconclusive)

Name the reported EC50 value associated with the compound `COc1ccc(-c2oc3ccc(N4CCOCC4)cc3c2C#CC2(O)CCCCC2)cc1`
> 150 µM (not active)

Name the reported EC50 value associated with the compound `Cc1cccc(NC2=NN=C(c3c(C)[nH]c4ccccc34)CS2)c1`
> 150 µM (not active)
